Origin of measurements: ChEMBL document CHEMBL1201862

GI50 values for the molecules below.
- Test system: OVCAR-3
- procedure text: NCI tumour cell line growth inhibition, 48 h
Counter-ions that a name gives are not always drawn. The source made the active and inactive calls. Cut-off read from the data, not from the text of the source: active = GI50 up to about 1.1 µM and inactive = higher.
reported metric: GI50

* CC(=O)c1c2c(cc3c1CCC3)CCC2 | > 100 µM (inactive)
* COc1ccc(/C=C2\N=C(SC)NC2=O)cc1 | > 100 µM (inactive)
* N[C@@H](Cc1ccc(N(CCCl)CCCl)cc1)C(=O)O [MELPHALAN HYDROCHLORIDE] | 42.3 µM (inactive)
* COC1(CC[C@@H](C)COC2OC(CO)C(O)C(O)C2O)O[C@H]2C[C@H]3[C@@H]4CC=C5C[C@@H](OC6OC(CO)C(OC7OC(C)C(O)C(O)C7O)C(O)C6OC6OC(C)C(O)C(O)C6O)CC[C@]5(C)[C@H]4CC[C@]3(C)[C@H]2[C@@H]1C (some centres undefined) | 2.36 µM (inactive)
* Clc1ccc(C2=Nc3ccccc3SC(c3ccc(Cl)c(Cl)c3)C2)c(Cl)c1 (centres undefined) | 13.3 µM (inactive)
* O=c1[nH]nc(Cc2ccccc2)n1/N=C/c1ccccc1O | > 100 µM (inactive)
* O=c1[nH]c(=O)n(C2OC(CO)C(O)C2O)cc1OCC(F)(F)F (centres undefined) | > 100 µM (inactive)
* O=C(O)CN(CC(=O)O)c1ccccc1 | 75.2 µM (inactive)
* CC1(C)C(=O)/C=C\C(=O)C(C)(C)C(=O)/C=C\C(=O)C(C)(C)C2=CC=C(O2)C(C)(C)C(=O)/C=C\C1=O | 3.27 µM (inactive)
* COc1cc(C=C2C(=O)NC(=O)NC2=O)cc(OC)c1OC | > 100 µM (inactive)
* c1cc2c(c(-c3c4ccccc4nc4ccccc34)c1)CC1(CC2)OCCO1 | > 100 µM (inactive)
* CCOC(=O)c1c(OCC)[nH]c(=O)c(C(c2ccc(F)cc2)c2c(O)c(C(=O)OCC)c(OCC)[nH]c2=O)c1O | 15.4 µM (inactive)
* CCOC(=O)c1nc2cc(C(F)(F)F)ccc2nc1Oc1ccc(C#N)cc1 | > 100 µM (inactive)
* CC(=O)N1CCN(C=S)CC1 | > 100 µM (inactive)

* * *

- Test system: K562
- procedure text: NCI tumour cell line growth inhibition, 48 h
The source made the active and inactive calls. Rule as the data show it: active = GI50 up to about 1.1 µM and inactive = higher.
reported metric: GI50

• O=NN(CCCl)C(=O)N[C@H]1CC[C@@H](O)CC1 = 23.6 µM (inactive)
• Clc1ccc(SCCCCCCCCCCSc2ccc(Cl)cc2)cc1 = > 91.2 µM (inactive)
• Oc1c(Cl)cc2cc1-c1cc(cc(Cl)c1O)CCc1c(cc(Cl)c(O)c1Cl)-c1cc(Cl)c(c(Cl)c1O)/C=C\2 = > 50 µM (inactive)
• C/C(=N\NC(=O)c1ccncc1)c1ccccc1F = > 10 µM (inactive)
• N#CS/C(C(Cl)=C(Cl)Cl)=C(/Cl)[N+](=O)[O-] = 0.603 µM (active)
• COc1cc2c(c(OC)c1OC)C(=O)[C@H]1OC(=O)N[C@@H]21 = > 100 µM (inactive)
• COc1ccc2[nH]c(C(O)(Cc3cccnc3)Cc3cccnc3)cc2c1 = > 100 µM (inactive)
• Cc1ccc(S(=O)(=O)N/N=C2\CCCCC23CCC(=O)NC3)cc1 (stereo unspecified) = > 100 µM (inactive)
• COc1cc(/C=C/c2ccc(OC)c(OC)c2)oc(=O)c1 = > 250 µM (inactive)
• C[n+]1c2ccccc2c(NC(CS)C(=O)O)c2ccccc21 (stereo unspecified) = 28.6 µM (inactive)
• COc1ccccc1NC(=S)Nc1cc(C)ccn1 = > 100 µM (inactive)
